# measurement.target: Trf4 NIM peptide (S. cerevisiae)
# method: fluorescence polarisation; fluorescence anisotropy, equilibrium binding of Nrd1 CID variants to FAM-labelled NIM peptides; 10°C, 50 mM Na2HPO4, 100 mM NaCl, pH 8; 1:1 model with non-specific binding (DynaFit)
Rule: Kd below 6 µM gives True, anything at or above gives False.

# binder, label.value
data = [
    ("Nrd1 CID I130A (domain or fragment) MQQDDDFQNFVATLESFKDLKSGISGSRIKKLTTYALDHIDIESKIISLIIDYSRLCPDSHKLGSLYIIDSIGRAYLDETRSNSNSSSNKPGTCAHAINTLGEVIQELLSDAIAKSNQDHKEKIRMLLDAWDRSGLFQKSYLNAIRSKCFAMD", "True"),
    ("Nrd1 CID L20D (domain or fragment) MQQDDDFQNFVATLESFKDDKSGISGSRIKKLTTYALDHIDIESKIISLIIDYSRLCPDSHKLGSLYIIDSIGRAYLDETRSNSNSSSNKPGTCAHAINTLGEVIQELLSDAIAKSNQDHKEKIRMLLDIWDRSGLFQKSYLNAIRSKCFAMD", "False"),
    ("Nrd1 CID R133D (domain or fragment) MQQDDDFQNFVATLESFKDLKSGISGSRIKKLTTYALDHIDIESKIISLIIDYSRLCPDSHKLGSLYIIDSIGRAYLDETRSNSNSSSNKPGTCAHAINTLGEVIQELLSDAIAKSNQDHKEKIRMLLDIWDDSGLFQKSYLNAIRSKCFAMD", "True"),
    ("Nrd1 CID R133A (domain or fragment) MQQDDDFQNFVATLESFKDLKSGISGSRIKKLTTYALDHIDIESKIISLIIDYSRLCPDSHKLGSLYIIDSIGRAYLDETRSNSNSSSNKPGTCAHAINTLGEVIQELLSDAIAKSNQDHKEKIRMLLDIWDASGLFQKSYLNAIRSKCFAMD", "True"),
    ("Nrd1 CID R133G (domain or fragment) MQQDDDFQNFVATLESFKDLKSGISGSRIKKLTTYALDHIDIESKIISLIIDYSRLCPDSHKLGSLYIIDSIGRAYLDETRSNSNSSSNKPGTCAHAINTLGEVIQELLSDAIAKSNQDHKEKIRMLLDIWDGSGLFQKSYLNAIRSKCFAMD", "True"),
]

Now examine the next entry.
Challenge: Hello, I'm reviewing records and need to know if Kd of Nrd1 CID I130K (domain or fragment) MQQDDDFQNFVATLESFKDLKSGISGSRIKKLTTYALDHIDIESKIISLIIDYSRLCPDSHKLGSLYIIDSIGRAYLDETRSNSNSSSNKPGTCAHAINTLGEVIQELLSDAIAKSNQDHKEKIRMLLDKWDRSGLFQKSYLNAIRSKCFAMD is below 6 µM. Could you check?
Response given: False

These entries and their values trace back to paper PMC7110113.
